System: AD38 cells
test_details: Viability of AD38 cells (Promega CellTiter-Glo)
Assay type: cell-based
assay_conditions: 10 μM compound, 6 days, CellTiter-Glo luminescence normalized to DMSO control (100%)
parameter_measured: AD38 Viability Normalized Result (cmpd/DMSO %) at 10 μM
One number for each entry, in %.

Sample `Cc1nc(C)c(CNC(=O)c2ccc3c(c2)NC(=O)c2ccccc2O3)s1` — what was its AD38 Viability Normalized Result (cmpd/DMSO %) at 10 μM?
101

Sample `O=C(NCc1cnc(-c2ccc(OC3CCNCC3)cc2)s1)c1ccc2c(c1)NC(=O)c1ccccc1S2(=O)=O` — what was its AD38 Viability Normalized Result (cmpd/DMSO %) at 10 μM?
100

Please supply AD38 Viability Normalized Result (cmpd/DMSO %) at 10 μM for each of the following items, keeping them in order.
1. Cc1c(C(=O)NCc2cnc(-c3ccc(O)cc3)s2)ccc2c1NC(=O)c1ccccc1S2(=O)=O
2. O=C(O)c1ccc(-c2ncc(CNC(=O)c3ccc4c(c3)NC(=O)c3ccccc3O4)s2)cc1
3. O=C(NCc1cnc(-c2ccc(SCCCN3CCCCC3)cc2)s1)c1ccc2c(c1)NC(=O)c1ccccc1S2(=O)=O
4. O=C(NCc1cnc(-c2ccc(O)cc2F)s1)c1ccc2c(c1)NC(=O)c1ccccc1S2(=O)=O
5. Cc1ncc(CNC(=O)c2ccc3c(c2)NC(=O)c2cc(Cl)ccc2S3)s1

[94, 105, 66, 102, 98]

Please supply AD38 Viability Normalized Result (cmpd/DMSO %) at 10 μM for each of the following items, keeping them in order.
1. O=C(NCc1cnc(-c2ccc3[nH]ncc3c2)s1)c1ccc2c(c1)NC(=O)c1ccccc1O2
2. N#Cc1ccc(-c2ncc(CNC(=O)c3ccc4c(c3)NC(=O)c3ccccc3S4(=O)=O)s2)c(F)c1
3. COC(=O)[C@@H]1CCCN1CCCOc1ccc(-c2ncc(CNC(=O)c3ccc4c(c3)NC(=O)c3ccccc3S4(=O)=O)s2)cc1
4. Cl.NCc1ccc(-c2ncc(CNC(=O)c3ccc4c(c3)NC(=O)c3ccccc3S4(=O)=O)s2)cc1
5. COc1ccc(-c2ncc(CNC(=O)c3ccc4c(c3)NC(=O)c3ccccc3S4(=O)=O)s2)cc1
6. COc1c(C)cc(-c2ncc(CNC(=O)c3ccc4c(c3)NC(=O)c3ccccc3O4)s2)cc1C
7. Cc1cc(-c2ncc(CNC(=O)c3ccc4c(c3)NC(=O)c3ccccc3S4(=O)=O)s2)ccc1O
8. CCc1ncc(CNC(=O)c2ccc3c(c2)NC(=O)c2ccccc2S3(=O)=O)s1

1. 112
2. 92
3. 90
4. 94
5. 25
6. 104
7. 103
8. 99

Please supply AD38 Viability Normalized Result (cmpd/DMSO %) at 10 μM for each of the following items, keeping them in order.
1. Cl.NCc1cnc(-c2ncc(CNC(=O)c3ccc4c(c3)NC(=O)c3ccccc3S4)s2)s1
2. O=C(NCc1cnc(-c2ccc(S(=O)(=O)CCCO)cc2)s1)c1ccc2c(c1)NC(=O)c1ccccc1S2(=O)=O

1. 92
2. 95

Please supply AD38 Viability Normalized Result (cmpd/DMSO %) at 10 μM for each of the following items, keeping them in order.
1. COc1cc2c(cc1C(=O)NCc1cnc(-c3ccc(C#N)cc3)s1)NC(=O)c1ccccc1S2(=O)=O
2. CN(C)C(=O)c1ccc(-c2ncc(CNC(=O)c3ccc4c(c3)NC(=O)c3ccccc3S4(=O)=O)s2)cc1
3. O=C(NCc1cnc(-c2ccc(O)cc2F)s1)c1ccc2c(c1)NC(=O)c1ccccc1O2
4. CC(C)CN1c2ccc(C(=O)NCc3cnc(C(F)(F)F)s3)cc2NC(=O)c2ccccc21
5. Cc1c(C(=O)NCc2cnc(-c3ccc(OCCCN(C)C)cc3)s2)ccc2c1NC(=O)c1ccccc1O2
6. N#Cc1ncc(CNC(=O)c2ccc3c(c2)NC(=O)c2ccccc2S3(=O)=O)s1

118
93
96
100
97
95
